B1: tRNA (parent)
chain: GUUCCGUUGGCGUAAUGGUAACGCGUCUCCCUCCUAAGGAGAAGACUGCGGGUUCGAGUCCCGUACGGAACG

- Variants of: B1
- METHOD_NOTES: yeast fitness relative to wild type (ratio to wild type); higher = fitter; tRNA-Arg(CCU), competitive growth, 37 C, YPD
Fewer inactive variants are shown than the library holds.
OBSERVABLE: yeast fitness

- GUUCCAUUGGCGUAAUGGUAACGCGUCUCCCUCCUAAGGAGAAGACUGCGGAUUCGAGUCCCAUACGGAACG [G6A G52A G63A]: ≤ 0.5

Q: Entry under review: GUUUCGUUGGCGUAAUGGUAACGCCUCUCCCUCUUAAGGAGAAGACUGCGGGUUCGAGUCCCGUUCGGAACG [C4U G25C C34U A65U] . Reported yeast fitness?
Ans: ≤ 0.5

Q: Cool, now GUUCCGUUGGCGUAAUGGUACCGCGUCUCCCUCCUAAGGAGAGGACUGCGGGUUCGACUCCCGUACGGAACG [A21C A43G G58C]
Ans: ≤ 0.5

Q: Again, but for GUUCCGUUGGCGUAGUGGUAACGCGUCUCCCUCCUAAGGAGAAGACUGCGGGUUCGCGUCCAGUACGGAACG [A15G A57C C62A]
Ans: ≤ 0.5

Q: Now consider GUUCAGUUGGCGUAUUGGUAACGAAUCUCCCUCCUAAGGAGAAGACCGCGGCUUCGAGUCCCGUACGGAACG [C5A A15U C24A G25A U47C G52C] and answer again.
Ans: ≤ 0.5

Q: Similarly, GUUCCGUUGGCGUACUGGUAACGCGUCUCCCUCCUAAGGGGAAGACUGCGGGCUCGAGUCCCGUACGGAACG [A15C A40G U53C] ?
Ans: ≤ 0.5

Q: Next up: GUUCCGUUGAUGUAAUGGUAACGCGUCUCCCUCCUAAGGAGAUGACUGCGGGUUCGAGUUCCGUACGGAACG [G10A C11U A43U C60U]
Ans: ≤ 0.5

Q: Here is the next variant: GUUCCAUUGGCGAAAUGGCAACGCGUCUCCCUCCUAAGGUGAAGACUGCGGGUUCGAGUCCCGUACAGAACG [G6A U13A U19C A40U G67A]
Ans: ≤ 0.5

Q: # repeat for GUUCCGUUGGCGUAAUGGUAACGCGUAUCCCUCCUAUGGAGAAGACUGCGGGUUCGAGUCUCGUACGGAACG [C27A A37U C61U]
Ans: ≤ 0.5

Q: Could you do the same for GUUUCGUUGGAAUAAUGGUAACGCGUCUCCCUCCUAAGGAGUAGACUGUGAGUUCGAGUCCCGUACGGAACG [C4U C11A G12A A42U C49U G51A] , please?
Ans: ≤ 0.5

Q: Then this variant: GUUCCAUUGGAGUAAUGGUAAGGCGUCUCCCUCCUAAGGAGAAGACUGCGGGUUCGAGUCCCGUACGGAACG [G6A C11A C22G]
Ans: ≤ 0.5

Q: Same for GUUCCGUUGGCGUAAUGGUAACCCGUCUACCUCCUAAGGAGAAGACUGCGGGUUCGAGUCCCGUAUGGAACG [G23C C29A C66U]
Ans: ≤ 0.5

Q: Param item: GUAACGUUGGCGUAAUGCUAACGCGUCUCCCUCUUGAGGAGAAGACUGCGGGUUCGAGUCCCCUACGGAACG [U3A C4A G18C C34U A36G G63C]
Ans: ≤ 0.5

Q: Do the same for GUUCCGUUAGCGUAAUGGUAUCGGGUCACCCUCCUAAGGAGAAGACUGCGGGUUCGAGUGCCGUACGGACCG [G9A A21U C24G U28A C60G A70C] please
Ans: ≤ 0.5

Q: Then this variant: GUUCCGUUGGGGUAAAGGUAACCCGUCUCUCUCUUAAGGAGAAGACUGCGGGUUCGAGUCCCGUACUGAACG [C11G U16A G23C C30U C34U G67U]
Ans: 0.537

Q: Can you check GUUCCGUUGGCGUAAUGCUAACGCGUCUCCCUCCUAAGGAGAAGACUGCGGGUUCGAGUUCCGUACAGAACG [G18C C60U G67A] next?
Ans: ≤ 0.5

Q: // next record GUUCAGUUGGCGUAAUGGUAACGCGUCUCCGUCCUAAGGAGAAGACUGCGGGUCCGAGUCCCGUACGGAACG [C5A C31G U54C]
Ans: 0.588

Q: Field entry: GUUCCGUUGGCGUAAUGGUAGCGCGUCUCCCUCCUAAGAAGAAGACUGCGGGUUCGAGUCCCGUACGGAACG [A21G G39A]
Ans: 0.809

// provenance: the RNAGym collection of RNA variant scans (doi:10.1126/science.aae0568)
